In this section, each of the compounds is paired with its reported GI50.
- Tested on: H929 human cancer cell lines
- experiment description: Cellular viability / proliferation (Cell TiterGlo, 72 h)
- Type: cell-based
- run conditions: Homo sapiens, NCI-H929, 72 h, read-out: GI50 on cellular proliferation of H929 human cancer cell lines, H929 cells, 72 h, Cell TiterGlo, 10% FBS
attribute measured: GI50 (nM)

1) Cc1cc(OCCCc2c3n(c4c(-c5c(C)nn(C)c5C)c(Cl)ccc24)[C@H](C)CN(c2cc(C(=O)O)nc4c2ccn4C)C3=O)cc(C)c1Cl; 4100
2) COCCn1c(C(N)=O)cc2cccc(N3C[C@@H](C)n4c(c(CCCOc5cc(C)c(Cl)c(C)c5)c5ccc(Cl)c(-c6c(C)nn(C)c6C)c54)C3=O)c21; 580
3) Cc1cc(OCCCc2c3n(c4c(-c5c(C)nn(C)c5C)c(Cl)ccc24)[C@H](C)CN(c2cc(OC(F)(F)F)cc4cc(C(=O)O)n(C)c24)C3=O)cc(C)c1Cl; 1500
